Measured GI50 on B16F10 cells (mouse melanoma [malignant melanoma] cells) follows.

>  <COMPOUND>
CCc1nc2c(N3CCOCC3)nc(SCc3ccc(OC)c(NC(=O)COC)c3)nc2n1C

>  <VALUE_MODIFIER>
=

>  <GI50, nM>
1900

$$$$
>  <COMPOUND>
CCn1c(C)nc2c(N3CCOCC3)nc(SCc3ccc(OC)cc3)nc21

>  <VALUE_MODIFIER>
=

>  <GI50, nM>
1420

$$$$
>  <COMPOUND>
COc1ccc(CSc2nc(N3C=COCC3)c3ncn(C)c3n2)cc1N

>  <VALUE_MODIFIER>
=

>  <GI50, nM>
300

$$$$
>  <COMPOUND>
CN(C)c1nc(SCc2ccccc2)nc2[nH]cnc12 [Compound C, reference compound]

>  <VALUE_MODIFIER>
>

>  <GI50, nM>
10000

$$$$

----------
Form: system (PC-3 cells (human prostate cancer cells)), quantity (GI50), values below.

>  <COMPOUND>
CN(C)c1nc(SCc2ccccc2)nc2[nH]cnc12 [Compound C, reference compound]

>  <UNIT_TAG>
µM

>  <VALUE_MODIFIER>
>

>  <GI50>
10

$$$$
>  <COMPOUND>
COc1ccc(CSc2nc(-n3cccc3)c3ncn(C)c3n2)cc1 [Compound 109]

>  <UNIT_TAG>
µM

>  <VALUE_MODIFIER>
=

>  <GI50>
0.58

$$$$
>  <COMPOUND>
CCc1nc2c(N3CCOCC3)nc(SCc3ccc(I)cc3)nc2n1C [Compound 49]

>  <UNIT_TAG>
µM

>  <VALUE_MODIFIER>
=

>  <GI50>
0.46

$$$$
>  <COMPOUND>
CCNc1nc(SCc2ccc(OC)c(C#N)c2)nc2c1ncn2C [Compound 89]

>  <UNIT_TAG>
µM

>  <VALUE_MODIFIER>
=

>  <GI50>
0.21

$$$$
>  <COMPOUND>
CCc1nc2c(N3CCOCC3)nc(SCc3ccc(OC)c(NC(C)=O)c3)nc2n1C [Compound 27]

>  <UNIT_TAG>
µM

>  <VALUE_MODIFIER>
=

>  <GI50>
0.65

$$$$
>  <COMPOUND>
COc1ccc(CSc2nc(N(C)C)c3ncn(C)c3n2)cc1 [Compound 21]

>  <UNIT_TAG>
µM

>  <VALUE_MODIFIER>
=

>  <GI50>
0.14

$$$$
>  <COMPOUND>
CCc1nc2c(N3CCOCC3)nc(SCCCc3ccc(OC)cc3)nc2n1C [Compound 50]

>  <UNIT_TAG>
µM

>  <VALUE_MODIFIER>
=

>  <GI50>
0.62

$$$$
>  <COMPOUND>
COc1ccc(CSc2nc(N(C)C)c3ncn(C)c3n2)cc1N [Compound 19]

>  <UNIT_TAG>
µM

>  <VALUE_MODIFIER>
=

>  <GI50>
0.4

$$$$
>  <COMPOUND>
CCc1nc2c(N3CCN(N=O)CC3)nc(SCc3ccc(OC)cc3)nc2n1C [Compound 7]

>  <UNIT_TAG>
µM

>  <VALUE_MODIFIER>
=

>  <GI50>
0.14

$$$$
>  <COMPOUND>
COc1ccc(CSc2nc(N(C)C(C)=O)c3ncn(C)c3n2)cc1 [Compound 61]

>  <UNIT_TAG>
µM

>  <VALUE_MODIFIER>
=

>  <GI50>
0.89

$$$$
>  <COMPOUND>
CCc1nc2c(N3CCN(N=O)CC3)nc(SCc3ccc(OC)c(F)c3)nc2n1C [Compound 20]

>  <UNIT_TAG>
µM

>  <VALUE_MODIFIER>
=

>  <GI50>
0.04

$$$$
>  <COMPOUND>
CCN(C)c1nc(SCc2ccc(OC)c(C#N)c2)nc2c1ncn2C [Compound 85]

>  <UNIT_TAG>
µM

>  <VALUE_MODIFIER>
=

>  <GI50>
0.12

$$$$
>  <COMPOUND>
CCc1nc2c(N3CCOCC3)nc(SCc3ccc(OC)c(NC(=O)COC)c3)nc2n1C [Compound 63]

>  <UNIT_TAG>
µM

>  <VALUE_MODIFIER>
=

>  <GI50>
0.87

$$$$
>  <COMPOUND>
CCN(C)c1nc(SCc2ccc(OC)c(N)c2)nc2c1ncn2C [Compound 84]

>  <UNIT_TAG>
µM

>  <VALUE_MODIFIER>
=

>  <GI50>
0.98

$$$$
>  <COMPOUND>
CCc1nc2c(N3CCOCC3)nc(SCc3ccc(OC)cc3OCc3ccccc3)nc2n1C [Compound 15]

>  <UNIT_TAG>
µM

>  <VALUE_MODIFIER>
=

>  <GI50>
0.82

$$$$
>  <COMPOUND>
CCCn1c(CC)nc2c(N3CCOCC3)nc(SCc3ccc(OC)cc3)nc21 [Compound 6]

>  <UNIT_TAG>
µM

>  <VALUE_MODIFIER>
=

>  <GI50>
0.6

$$$$
>  <COMPOUND>
COc1ccc(CSc2nc(-c3ccc([N+](=O)[O-])cc3)c3ncn(C)c3n2)cc1 [Compound 166]

>  <UNIT_TAG>
µM

>  <VALUE_MODIFIER>
=

>  <GI50>
1.39

$$$$
>  <COMPOUND>
CCOc1ccc(CSc2nc(N3C=COCC3)c3ncn(CC)c3n2)cc1N [Compound 156]

>  <UNIT_TAG>
µM

>  <VALUE_MODIFIER>
=

>  <GI50>
1.04

$$$$
>  <COMPOUND>
COc1ccc(CSc2nc(N3CCOCC3)c3ncn(C)c3n2)cc1C#N [Compound 80]

>  <UNIT_TAG>
µM

>  <VALUE_MODIFIER>
=

>  <GI50>
0.07

$$$$
>  <COMPOUND>
CCOc1ccc(CSc2nc(N3CCOCC3)c3nc(CC)n(C)c3n2)cc1N [Compound 103]

>  <UNIT_TAG>
µM

>  <VALUE_MODIFIER>
=

>  <GI50>
0.13

$$$$
>  <COMPOUND>
CNc1nc(SCc2ccc(OC)c(N)c2)nc2c1ncn2C [Compound 45]

>  <UNIT_TAG>
µM

>  <VALUE_MODIFIER>
=

>  <GI50>
0.15

$$$$
>  <COMPOUND>
C=Cc1ccc(CSc2nc(N3CCOCC3)c3nc(CC)n(C)c3n2)cc1 [Compound 10]

>  <UNIT_TAG>
µM

>  <VALUE_MODIFIER>
=

>  <GI50>
0.89

$$$$
